# credit: the supplement of paper PMC9170038

# maps each entry to its apparent KD of MS2 coat protein
System: MS2 coat protein
assay method text: apparent KD of MS2 coat protein; designed switch direction (-1 OFF switch, 1 ON switch): -1; higher = weaker reporter binding
stated conditions: input ligand: FMN 200 uM
quantity measured: apparent KD of MS2 coat protein (nM)

# sequence input, result number
measured = [
    ("CAAUUCAGAGGAUAUGCGCAUAGAUAAGACUUUUUUUCUUAACAUGAGGAUCACCCAUGUAGAAGGCUGUAAAC [Ex2 #62] (Eterna round: R97, puzzle: Exclusion 2)", 16.5),
    ("AGCUGUGGCCGAGGAUAUCUAACAGUCCCAACCGAAAUAUAAUCGGACAUGAGGAUCACCCAUGUAGAGAAGGCGGUCUCAGCA [Eli eng2 - 072] (Eterna round: R96, puzzle: Exclusion NG 2)", 324),
    ("CUAACAUGCUGGUGAUCAUACAUGAGGAUCACCCAUGUAACAAGCUUUUUGUUCGUCUUAUAAGAUUACUAGUAUGU [Stov1/10-B3] (Eterna round: R97, puzzle: Sensor, turn-off variant 1)", 38.8),
    ("GCUUGUCUUUAGGAUAUCGUGAGGCCCUUCAUACGAGAAGGAAAGACAUGAGGAUCACCCAUGUCGGGUAUCAC [Eternabot (L1) Solution 28] (Eterna round: R97, puzzle: Exclusion 6)", 51.8),
    ("CAAAAGGGAGGAUAUACUUGAGGAUCACCCAAGUAAUCGGGUCAAAGAUACCAAGCAGGUAGAAGGCCCAAAUA [Teedleveer] (Eterna round: R97, puzzle: Exclusion 3)", 91.5),
    ("ACAAGCUUGUAAUGAUUGAACAUGAGGAUCACCCAUGUAAAUGGAAGAACCAACUUGAUAUGAUUUACUCGUCUUAU [JR_STOV1_Sub011] (Eterna round: R97, puzzle: Sensor, turn-off variant 1)", 676),
    ("ACAUGAGGAUCACCCAUGUUUGGCUGGUUUUCUCCGGCUGUCGAGGAUAUAGUACGGUAUCCGCGCUAGAAGGUGAGGGUCGGC [Aenatbe mod 2] (Eterna round: R96, puzzle: Exclusion NG 3)", 17.1),
    ("CGUCAGAUCGCAGGAUAUGUUAGAUGAGCACAGAAUGUCCAGACCACAUGAGGAUCACCCAUGUAACAGAAGGGCGGUCUACGG [Eternabot solution 29] (Eterna round: R96, puzzle: Exclusion NG 2)", 79.3),
    ("GUAGAGUCAGGAUAUACAAGAUCGAUAGAUCGGCGGUCCAUACAUGAGGAUCACCCAUGUAGAAGGGACUCUAC [Mat - Exclusion 2 - Eli Mod - D5] (Eterna round: R97, puzzle: Exclusion 2)", 514),
    ("AACAGUAGAGGAUAUACACGAACAAACAUGAGGAUCACCCAUGUGAAACCGUGCUGUCCGGUAGAAGGCUACUAUA [Zavetiaton] (Eterna round: R97, puzzle: Exclusion 5)", 40.6),
    ("GAGUCACAUGAGGAUCACCCAUGUGAGGAUAUCAUGCUUCGUAGUAAACUACGAAGUGUGAGAAGGCACAAUGG [Omei Ex1 C8] (Eterna round: R97, puzzle: Exclusion 1)", 126),
    ("ACAAGCAUUUAUAUUUUAAAAUUUUAUCGUCUUAUAAUUACAUGAGGAUCACCCAUGUAUAAAGGGUGAAUAAUAAU [JR_Sensorv2_tov2_Sub550] (Eterna round: R96, puzzle: Sensor v2, turn-off variant 2)", 93.9),
    ("UAAAUGUGAGGAUAUUCGAUUUACUCGGAGACGAGUAGAUCGGAGAAGGCACAUGAGGAUCACCCAUGUUCCUU [Mat - Exclusion 4 - JL Mod - D10] (Eterna round: R97, puzzle: Exclusion 4)", 234),
    ("GCAGCAACUCUAAUCAAUCAAACAUGAGGAUCACCCAUGUCUCAGGAUAUGGUCUGGAUUACAGGCCAGAAGGGAGAAAGCUGC [Eli exng3 - 045] (Eterna round: R96, puzzle: Exclusion NG 3)", 14.3),
    ("ACAUUUGUAGAGGAUAUCAAGCCCAGGCUCCGUUGAGAAGGUUACACAUGAGGAUCACCCAUGUCCUCCUUACC [Eternabot (L1) Solution 4] (Eterna round: R97, puzzle: Exclusion 6)", 168),
    ("CCAGAGAGCGAAGGAUAUUCUGUUCAAUGGGUCGACCUAGACAUGAGGAUCACCCAUGUCGCCCGGGAGAAGGUCGCAAGGAUC [Eternabot solution 18] (Eterna round: R96, puzzle: Exclusion NG 2)", 18.7),
    ("AAAAAAAAGUGAGGAUAUGGAAAUUUGGUGAUAACAUGAGGAUCACCCAUGUGAAAACAAUAAAAUUAGAAGGUAUAAAAAAAA [AK ExNG2-1] (Eterna round: R96, puzzle: Exclusion NG 2)", 122),
    ("GUUUCACAUGAGGAUCACCCAUGUGAGGAUAUACAUUUGUUAACCGUAGUUAAUAGAUGUAGAAGGCGCGUGAU [JRxlusion 4 - Jieux - Exclusion 1] (Eterna round: R97, puzzle: Exclusion 1)", 50.6),
]
